Reference source for all entries: ChEMBL document CHEMBL4622979

PROTOCOL DETAILS: Cmax in CD1 mouse plasma at 10 mg/kg, po administered as single dose by LC-MS/MS analysis
Format: ADME, organism-based
Parameters: dose 10 mg/kg, route oral
// reported log10(Cmax) per item
Annotation: log10 of Cmax, ng/mL basis.

Consider the reported log10(Cmax) for these molecules:
[[record]]
input_smiles = "O=C1c2c(O)c(=O)ccn2N([C@H](c2ccccc2)c2ccc(F)c(F)c2)[C@@H]2COCCN12"
observed_measurement = 2.06

[[record]]
input_smiles = "O=C1c2c(O)c(=O)ccn2N([C@@H](c2ccccc2)c2ccc(F)c(F)c2)[C@@H]2COCCN12"
observed_measurement = 2.52

[[record]]
input_smiles = "O=C1c2c(O)c(=O)ccn2N(C(c2ccccc2)c2ccccc2)[C@@H]2COCCN12"
observed_measurement = 3.22

[[record]]
input_smiles = "O=C1c2c(O)c(=O)ccn2N([C@@H]2c3ccccc3SCc3c2ccc(F)c3F)[C@@H]2COCCN12"
observed_measurement = 1.08


Query: For `O=C1c2c(O)c(=O)ccn2N(C(c2ccc(F)cc2)c2ccc(F)cc2)[C@@H]2COCCN12` , write its log10(Cmax).
Result: 2.49

====

PROTOCOL DETAILS: Oral bioavailability in CD1 mouse at 10 mg/kg administered as single dose by LC-MS/MS analysis
Assay type: ADME, organism-based
COND: in vivo
// reported bioavailability per item
Express it in %; write the number only.

Consider the reported bioavailability for these compounds:
[[record]]
compound = "O=C1c2c(O)c(=O)ccn2N([C@@H]2c3ccccc3SCc3c2ccc(F)c3F)[C@@H]2COCCN12 [BALOXAVIR]"
observed_measurement = 3

[[record]]
compound = "O=C1c2c(O)c(=O)ccn2N(C(c2ccc(F)cc2)c2ccc(F)cc2)[C@@H]2COCCN12"
observed_measurement = 22.6

[[record]]
compound = "O=C1c2c(O)c(=O)ccn2N(C(c2ccccc2)c2ccccc2)[C@@H]2COCCN12"
observed_measurement = 38.2


Query: For `O=C1c2c(O)c(=O)ccn2N([C@H](c2ccccc2)c2ccc(F)c(F)c2)[C@@H]2COCCN12` , write its bioavailability.
Result: 2.7

Query: For `O=C1c2c(O)c(=O)ccn2N([C@@H](c2ccccc2)c2ccc(F)c(F)c2)[C@@H]2COCCN12` , write its bioavailability.
Result: 17.6

====

PROTOCOL DETAILS: Stability in simulated intestinal fluid assessed as parent compound remaining at 1 uM measured after 4 hrs at pH 1.2 by LC-MS/MS analysis
Assay type: physicochemical
COND: read-out: Stability
// reported remaining at 4 h, 1 µM per item
Express it in %; write the number only.

Consider the reported remaining at 4 h, 1 µM for these molecules:
[[record]]
input_smiles = "O=C1c2c(O)c(=O)ccn2N(C(c2ccc(F)cc2)c2ccc(F)cc2)[C@@H]2COCCN12"
measure = "remaining at 4 h, 1 µM"
observed_measurement = 96

[[record]]
input_smiles = "COC(=O)OCOc1c2n(ccc1=O)N([C@@H]1c3ccccc3SCc3c1ccc(F)c3F)[C@@H]1COCCN1C2=O"
measure = "remaining at 4 h, 1 µM"
observed_measurement = 87.9

[[record]]
input_smiles = "O=C1c2c(O)c(=O)ccn2N(C(c2ccccc2)c2ccccc2)[C@@H]2COCCN12"
measure = "remaining at 4 h, 1 µM"
observed_measurement = 89.3


Read the next record carefully.
Query: For `COC(=O)OCOc1c2n(ccc1=O)N(C(c1ccc(F)cc1)c1ccc(F)cc1)[C@@H]1COCCN1C2=O` , write its remaining at 4 h, 1 µM.
Result: 99.7
